- procedureText: Liver microsomal stability, human
- Assay type: in vitro ADME
- studyConditions: human liver microsomes, 1 μM substrate, 0.5 mg protein/mL, 30 min
# remaining at 0.5 h, 1 μM per entry
Express your answer in %, writing the number without its unit.

* COc1ccc(CNC(=O)c2nc(-c3ccc4c(c3)OCO4)no2)cc1OC | 61.4

[Q] // query remaining at 0.5 h, 1 μM value for entry O=C(Nc1ccc(Br)cc1)c1ccn(Cn2cc([N+](=O)[O-])cn2)n1
[A] 96.2

###

- procedureText: Metabolic analysis in vivo: blood concentration after injection
- studyConditions: PXB-mice (cDNA-uPA^wild/+/SCID), other: injection, human hepatocyte-chimeric mouse, blood at 5-480 min, n = 1, read-out: t1/2 in blood
parameter: half-life (min)
Express your answer in min, writing the number without its unit.

[Q] // query half-life value for entry O=C(Nc1ccc(Br)cc1)c1ccn(Cn2cc([N+](=O)[O-])cn2)n1 [iCDM-34]
[A] 23
